tested on: UO-31 renal; assay: NCI tumour cell line growth inhibition, 48 h
Parameter: TGI. Scope: all listed entries.
MEASURED QUANTITY: TGI

COMPOUND: C=C(C)C1Cc2c(c3ccccc3n(C)c2=O)O1 (stereo not given)
RESULT: > 100 µM
//
COMPOUND: c1ccc2oc(-c3ccc(-c4nc5ccccc5o4)c4c3CC4)nc2c1
RESULT: > 100 µM
//
COMPOUND: CC1(c2nc3ccccc3[nH]2)CCC(C(=O)O)C(C)(C)O1 (stereo not given)
RESULT: > 100 µM
//
COMPOUND: c1cc2nnc1SCCCSc1ccc(nn1)SCCCS2
RESULT: > 100 µM
//
COMPOUND: COc1cc2nc(-c3cc(F)ccc3O)nc(N[C@@H]3CNC[C@H]3C(C)(C)O)c2cc1OC
RESULT: 3.21 µM
//
COMPOUND: O=[N+]([O-])c1ccc(-c2nc3ccc(Cl)cc3[nH]2)cc1
RESULT: > 100 µM
//
COMPOUND: CC(=O)OCC(=O)O[C@@H]1[C@H]2[C@@H](OC(=O)c3ccccc3)[C@@H](C)C[C@]2(O)[C@H](OC(C)=O)[C@@]2(C)C(OC(C)=O)[C@]1(OC(C)=O)C[C@H]1C(=O)C(C)(C)C[C@@H]12 (stereo not given in full)
RESULT: > 50 µM
//
COMPOUND: Cc1cc(C)nc(NS(=O)(=O)c2ccc(NC(=O)c3cccc4c(Nc5ccc(S(=O)(=O)Nc6cc(C)on6)cc5)c5ccccc5nc34)cc2)n1
RESULT: > 100 µM
//
COMPOUND: O=C1Cc2c([nH]c3ccc(Br)cc23)-c2cc(O)c(O)cc2N1
RESULT: > 100 µM
//
COMPOUND: CSc1nc2sc3c(c2c(=O)n1-c1ccc(C(C)C)cc1)CCC(=O)C3
RESULT: 3.26 µM
//
COMPOUND: Cc1nc(C(=O)O)c2ccccc2n1
RESULT: > 100 µM
//
COMPOUND: O=[N+]([O-])c1ccc(N2CCOCC2)c2c1no[n+]2[O-]
RESULT: 5.07 µM
//
COMPOUND: O=c1[nH]c(=S)nc2nc3c4ccc[nH]c4c4ccccc4c3nc12
RESULT: > 100 µM
//
COMPOUND: Cc1cc(C)nc(NS(=O)(=O)c2ccc(Nc3c4ccccc4nc4c(C(=O)Nc5ccc(S(=O)(=O)N=C(N)N)cc5)cccc34)cc2)n1
RESULT: > 100 µM
//
COMPOUND: C[C@]12C[C@@H](OC(=O)[C@]1(C)O)[C@@H]([C@]1(O)CC[C@H]3[C@@H]4C[C@H]5O[C@]56C[C@H]5O[C@H]5C(=O)[C@]6(C)[C@H]4CC[C@@]31C)C2
RESULT: > 50 µM

---

# TGI annotations
system: MOLT-4 leukemia; assay: NCI tumour cell line growth inhibition, 48 h
MEASURED QUANTITY: TGI

COMPOUND: NC(=O)C(=O)C1CCC2=C(Sc3ccccc3N2)C1=O (stereo unspecified)
RESULT: > 100 µM

COMPOUND: CC(C)=CC(=O)N(C)C1C2CN3CCC(O2)C13 (stereo unspecified)
RESULT: > 100 µM

COMPOUND: O=c1[nH]c(=S)nc2nc3c4ccc[nH]c4c4ccccc4c3nc12
RESULT: > 100 µM

COMPOUND: COCOCC/C=C/C=O
RESULT: > 100 µM

COMPOUND: C=C(C)C1Cc2c(c3ccccc3n(C)c2=O)O1 (stereo unspecified)
RESULT: > 100 µM

COMPOUND: CCOC(=O)CNC(=O)C(CSC(=O)N(O)c1ccc(Cl)cc1)NC(=O)CCC(N)C(=O)OCC (stereo unspecified)
RESULT: > 50 µM

COMPOUND: CCOC(=O)C(=CNc1ccc(NC2=NCC(C)S2)cc1)C(=O)OCC (stereo unspecified)
RESULT: 30 µM

COMPOUND: COC(=O)[C@H]1CCCN1C(=O)[C@H]1CCCN1C(=O)[C@@H](Cc1c[nH]c2ccccc12)NC(=S)Nc1cc(C(F)(F)F)cc(C(F)(F)F)c1
RESULT: 7.6 µM

COMPOUND: Cc1ccc(-c2nc(N/N=C/C=C/c3ccccc3)c3ccccc3n2)cc1
RESULT: > 100 µM

COMPOUND: N#Cc1nc(-c2ccco2)oc1N
RESULT: > 10 µM

COMPOUND: Nc1[nH]c(=O)nc2c1cnn2C1CCCCO1 (stereo unspecified)
RESULT: > 100 µM

---

tested on: SK-MEL-28 melanoma; experiment: NCI tumour cell line growth inhibition, 48 h
MEASURED QUANTITY: TGI

MOLECULE: CCN(CC)CCCCCCNc1cc(OC)cc2cccnc12
TGT: SK-MEL-28 melanoma
MEASURED QUANTITY: TGI
RESULT: 4.53 µM
//
MOLECULE: CC1(C)OC(=S)N(c2ccccc2)C12C=Cc1ccccc1O2 (stereo not given)
TGT: SK-MEL-28 melanoma
MEASURED QUANTITY: TGI
RESULT: > 100 µM
//
MOLECULE: O=C1C(Cl)C2(CC(/C=C/c3ccccc3)=NN2c2cccc(S(=O)(=O)O)c2)N1c1nc2ccccc2s1 (stereo not given)
TGT: SK-MEL-28 melanoma
MEASURED QUANTITY: TGI
RESULT: > 100 µM
//
MOLECULE: O=C(/C=C/c1ccccc1)Oc1ccc(C(=O)/C=C/c2ccc(Cl)cc2)cc1
TGT: SK-MEL-28 melanoma
MEASURED QUANTITY: TGI
RESULT: > 100 µM
//
MOLECULE: CCOC(=O)/C=C/CCO[Si](C)(C)C(C)(C)C
TGT: SK-MEL-28 melanoma
MEASURED QUANTITY: TGI
RESULT: > 100 µM

---

Quick reference for TGI among some molecules
tested on: NCI-H460 lung; assay: NCI tumour cell line growth inhibition, 48 h

MOLECULE: Cc1cc(N(CCC#N)CCC#N)ccc1/C(N=Nc1cccc(Cl)c1)=N/NC(=O)c1cc(Cl)ccc1O
UNIT ABBREVIATION: µM
SIGN: =
TGI: 31.9
--
MOLECULE: COC(=O)[C@H]1CCCN1C(=O)[C@H]1CCCN1C(=O)[C@@H](Cc1c[nH]c2ccccc12)NC(=S)Nc1cc(C(F)(F)F)cc(C(F)(F)F)c1
UNIT ABBREVIATION: µM
SIGN: =
TGI: 4.1
--
MOLECULE: O=c1c2cc(S(=O)(=O)O)ccc2nc(COc2ccc(Oc3ccc(Cl)cc3Cl)cc2)n1-c1ccc(Oc2ccc(Cl)cc2)cc1Cl
UNIT ABBREVIATION: µM
SIGN: =
TGI: 32.8
--
MOLECULE: COCOCC/C=C/C=O
UNIT ABBREVIATION: µM
SIGN: >
TGI: 100
--
MOLECULE: O=CNCNCCO
UNIT ABBREVIATION: µM
SIGN: >
TGI: 100

---

test system: RPMI-8226 leukemia; assay: NCI tumour cell line growth inhibition, 48 h
Lab note: compare TGI against 40 µM. Equal or greater, write rule met. Smaller, write rule not met.

MOLECULE: N#Cc1ccc(C=NC23CC4CC(CC(C4)C2)C3)cc1
CLASS NAME: rule met
//
MOLECULE: Nc1nc(Nc2ccccc2SSc2ccccc2Nc2nc(N)nc(C(Cl)(Cl)Cl)n2)nc(C(Cl)(Cl)Cl)n1
CLASS NAME: rule not met
//
MOLECULE: O=C(CC1SC(=Nc2ccccc2Cl)NC1=O)Nc1ccc(Cl)cc1Cl (configuration not stated)
CLASS NAME: rule met
//
MOLECULE: COc1ccc(/C=C(\C#N)n2nnc3c(F)cccc32)cc1
CLASS NAME: rule met
//
MOLECULE: CC12CCC(=O)N1c1ccc([N+](=O)[O-])cc1N2 (configuration not stated)
CLASS NAME: rule met
//
MOLECULE: N#CC(C#N)c1ccc(C(=O)N2CCC[C@H]2CO)cc1
CLASS NAME: rule met
//
MOLECULE: COC(=O)c1ccc(S)c(S(=O)(=O)Nc2n[nH]c(N)n2)c1
CLASS NAME: rule met
//
MOLECULE: c1ccc2c(c1)Nc1ccncc1S2
CLASS NAME: rule met
//
MOLECULE: CCOP1(=O)C=C(C)C(Cl)=C(C)C1 (configuration not stated)
CLASS NAME: rule met
//
MOLECULE: NNC(=O)c1c(-c2cccnc2)cnc2ccccc12
CLASS NAME: rule met
//
MOLECULE: COc1ncnc(NS(=O)(=O)c2ccc(N=C3C(=O)N(CN4CCN(c5c(F)cc6c(=O)c(C(=O)O)cn(C7CC7)c6c5OC)CC4C)c4ccc(Br)cc43)cc2)c1OC (configuration not stated)
CLASS NAME: rule not met
//
MOLECULE: C[N+](C)(C)c1ncnc2c1ncn2C1CC(O)C(CO)O1 (configuration not stated)
CLASS NAME: rule met
//
MOLECULE: OC(C#Cc1ccccc1)(c1ccccc1)c1ccccc1
CLASS NAME: rule met
//
MOLECULE: Nc1nc(Nc2ccccc2)c2[nH]cnc2n1
CLASS NAME: rule met
//
MOLECULE: NS(=O)(=O)c1nnc(NS(=O)(=O)C(F)(F)F)s1
CLASS NAME: rule met
//
MOLECULE: Cc1cc(N(CCCNc2ccnc3cc(Cl)ccc23)Cc2ccco2)nc(N2CCN(C)CC2)n1
CLASS NAME: rule not met
//
MOLECULE: CC1=NC(=Cc2ccccc2O)C(=O)N1n1c(-c2ccccc2)nc2ccccc2c1=O
CLASS NAME: rule met
//
MOLECULE: O=c1[nH]cc(F)c(=O)n1C1OC(CO)C(O)C1O (configuration not stated)
CLASS NAME: rule met
//
MOLECULE: COc1cc2nc(-c3cc(F)ccc3O)nc(N[C@@H]3CNC[C@H]3C(C)(C)O)c2cc1OC
CLASS NAME: rule not met
//
MOLECULE: NC(=O)c1csc(C2OC(COP(=O)(O)CP(=O)(O)OCC3OC(n4cnc5c(N)ncnc54)C(O)C3O)C(O)C2O)n1 (configuration not stated)
CLASS NAME: rule met
